experimental-system: Beta-2 adrenergic receptor (Homo sapiens)
assay-explanation: agonist-induced loss of surface beta2AR – cell-based, FAP fluorogen, flow cytometry, validation set, pilot screen (AID 504459);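 also: agonist-driven loss of surface beta2AR via internalization measured by FAP dye flow cytometry; reference of the scale not given here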
experimental-conditions: Am2.2-beta2AR cells, at 10 µM, stronger effect = higher value
Listing of entries alongside the reported response.
The reply should contain only the number, in %.

Take a look at these entries with their results.
Cc1nc(NCc2ccco2)c(C#N)c2c1COC(C)(C)C2	7.11
Cn1c(Oc2ccc3c(c2)OCO3)nc2c1c(=O)n(Cc1ccccc1)c(=O)n2C	-26.9
COc1ccc(C2CC(c3ccc([N+](=O)[O-])cc3)=NN2C(=O)c2ccccc2)cc1OC (stereo not given)	6.46
CCSC(SCC)[C@H](O)[C@@H](O)[C@H](O)[C@H](O)CO	-7.81

// next entry
Challenge: Recall the reported response of `Cc1cccc(OCC(=O)Nc2ccc(C(=O)NCC(C)C)cc2)c1` on Beta-2 adrenergic receptor (Homo sapiens) and write it down.
Response given: -25
